tested on: MRC5; test: Cytotoxicity against human MRC5 cells at 64 uM; format: cell-based; settings: mrc5, 64 µM
EXPERIMENTAL_ENDPOINT: Activity

CC(=O)N(O)CCCS(=O)(=O)NC(=O)c1ccccc1 = Non-toxic
CC(=O)N(O)CCCS(=O)(=O)NC(=O)Cc1ccccc1 = Non-toxic
CC(=O)NS(=O)(=O)CCCN(O)C(C)=O = Non-toxic
CC(=O)N(O)CCCS(=O)(=O)NC(=O)CCc1ccccc1 = Non-toxic

###

test system: Pseudomonas aeruginosa; test: Antimicrobial activity against Pseudomonas aeruginosa at 64 uM; type: functional, organism-based
The source made the active and inactive calls. The calls are words filed in the database; no cut-off is given here.
EXPERIMENTAL_ENDPOINT: Activity

CC(=O)N(O)CCCS(=O)(=O)NC(=O)CCc1ccccc1 = inactive
CC(=O)N(O)CCCS(=O)(=O)NC(=O)Cc1ccccc1 = inactive
CC(=O)NS(=O)(=O)CCCN(O)C(C)=O = inactive
CC(=O)N(O)CCCS(=O)(=O)NC(=O)c1ccccc1 = inactive

Every entry's value here was drawn from ChEMBL document CHEMBL3400048.
